Molecular target: STAT6 (Homo sapiens)
Construct: These cells express endogenous STAT6; host or cells: HeLa LgBiT clone 4.14 (CRISPR knock-in of HiBiT into the endogenous STAT6 gene)
Sequence (P42226 1-847): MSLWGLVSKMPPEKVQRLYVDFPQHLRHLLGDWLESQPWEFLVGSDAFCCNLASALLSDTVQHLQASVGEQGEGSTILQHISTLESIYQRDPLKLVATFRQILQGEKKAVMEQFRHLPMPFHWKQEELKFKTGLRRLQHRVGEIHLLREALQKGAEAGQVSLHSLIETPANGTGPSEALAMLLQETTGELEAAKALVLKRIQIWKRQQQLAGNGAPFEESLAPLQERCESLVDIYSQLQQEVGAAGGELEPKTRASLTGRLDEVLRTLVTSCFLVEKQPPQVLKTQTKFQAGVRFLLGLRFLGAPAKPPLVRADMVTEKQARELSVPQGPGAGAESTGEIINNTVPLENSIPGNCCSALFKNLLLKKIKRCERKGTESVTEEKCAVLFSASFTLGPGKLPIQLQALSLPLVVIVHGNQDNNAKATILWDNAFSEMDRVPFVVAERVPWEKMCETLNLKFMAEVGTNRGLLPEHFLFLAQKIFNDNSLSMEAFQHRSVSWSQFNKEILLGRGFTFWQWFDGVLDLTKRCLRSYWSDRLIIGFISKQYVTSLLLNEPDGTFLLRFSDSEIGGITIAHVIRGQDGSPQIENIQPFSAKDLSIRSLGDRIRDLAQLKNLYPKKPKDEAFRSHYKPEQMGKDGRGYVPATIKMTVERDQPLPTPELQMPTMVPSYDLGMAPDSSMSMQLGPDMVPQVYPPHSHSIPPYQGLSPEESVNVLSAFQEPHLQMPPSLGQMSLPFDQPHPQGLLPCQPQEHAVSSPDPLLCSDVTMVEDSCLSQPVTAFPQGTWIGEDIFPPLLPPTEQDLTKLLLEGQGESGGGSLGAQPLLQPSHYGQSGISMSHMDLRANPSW
Experiment: STAT6 Degrader Assay (HiBiT based, HeLa LgBiT clone 4.14 cells)
Format: cell-based
Settings: geometric mean across assay runs and compound batches; DC50 provided for test compounds with >80% Emax; read-out: STAT6 degradation DC50
property: DC50 (nM)

a: CNc1ccn(-c2ccnc3c2cc([C@H](C)N2CC=C(c4c(C)cc(C(=O)N5CCC(CN6CCN(c7ccc(N[C@@H]8CCC(=O)NC8=O)cc7F)C[C@@H]6C)CC5)cc4F)CC2)n3C)c(=O)c1 (single isomer, unassigned) [Example 2g99]
b: Cc1cc(C(=O)N2CCC(CN3CCN(c4ccc(NC5CCC(=O)NC5=O)cc4F)CC3)CC2)cc(F)c1C1=CCN([C@@H](C)c2cc3c(-n4ccc5c(c4=O)CCN5)ccnc3n2C)CC1 (some centres unmarked) [Example 2g18]
Which gives the smaller DC50 number: a or b ? # answer = label of selected item b

---

Test system: Eotaxin-3 (CCL26) release
Experiment: Human Whole Blood Eotaxin-3 Assay (IL-4 stimulated)
Type: cell-based
Conditions: Homo sapiens; geometric mean across assay runs and compound batches; EC50 provided for test compounds with >80% Emax
Description: This was a human whole blood assay using recombinant human Interleukin 4 to stimulate the blood and measuring the ability of the test compounds to inhibit eotaxin-3 release. The biological activities of the test compounds have been tested in human whole blood stimulated with IL-4 measuring Eotaxin-3 release. The test compounds were added to 384 well clear flat-bottom plate in a 4-fold serial dilution in triplicates using a liquid handler. […]
property: EC50 (nM)

molecule: CNc1cc(=O)n(-c2ccnc3c2cc(CN2CC=C(c4c(F)cc(C(=O)N5CCC(CN6CCN(c7ccc(N[C@@H]8CCC(=O)NC8=O)cc7F)CC6)CC5)cc4F)CC2)n3C)cc1F (single isomer, unassigned)
target: Eotaxin-3 (CCL26) release
property: EC50
unit info: nM
readout number: 99.4

1: C[C@@H](c1cc2c(-n3ccc4c(c3=O)CCN4)ccnc2n1C)N1CCC(c2ccc(C(=O)N3CCC(CN4CCN(c5ccc(NC6CCC(=O)NC6=O)cc5F)CC4)CC3)cc2)CC1 (stereo partly drawn)
2: CNc1cc(=O)n(-c2ccnc3c2cc([C@H](C)N2CC=C(c4c(C)cc(C(=O)N5CCC(CN6CCN(c7ncc(NC8CCC(=O)NC8=O)cc7F)CC6)CC5)cc4F)CC2)n3C)cc1F (stereo partly drawn)
I'd appreciate it if you could identify which of 1 and 2 has the greater EC50. # answer = label of selected item 2
(2: 25.7 nM, 1: 15.7 nM)
